In this section we review reported G151R minimum inhibition values for a set of compounds.
- ASSAY_SYSTEM: KCNJ5^G151R (Homo sapiens, UniProt P48544, G151R)
- Construct: expressed in transfected cells
- Sequence (P48544 1-419 G151R): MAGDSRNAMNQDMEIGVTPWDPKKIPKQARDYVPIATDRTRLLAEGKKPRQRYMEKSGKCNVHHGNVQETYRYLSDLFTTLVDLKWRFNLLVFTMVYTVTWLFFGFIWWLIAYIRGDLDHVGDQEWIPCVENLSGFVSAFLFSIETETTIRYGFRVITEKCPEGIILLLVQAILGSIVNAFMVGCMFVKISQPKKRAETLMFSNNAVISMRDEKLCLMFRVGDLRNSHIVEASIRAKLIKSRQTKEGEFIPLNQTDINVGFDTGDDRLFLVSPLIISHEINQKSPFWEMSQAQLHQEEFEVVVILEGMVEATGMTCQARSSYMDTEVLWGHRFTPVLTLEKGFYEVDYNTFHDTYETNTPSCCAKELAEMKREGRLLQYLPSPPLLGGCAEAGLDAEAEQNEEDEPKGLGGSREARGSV
- TEST: cell-based
- Assay type: cell-based
- TEST_PARAMETERS: 10-point dilution 20 to 0.0391 μM, N=3, four-parameter fit
Only the number, expressed in %, is required.

Worked set:
1) CC[C@H]1OC(=O)[C@H](C)[C@@H](O[C@H]2C[C@@](C)(OC)[C@@H](O)[C@H](C)O2)[C@H](C)[C@@H](O[C@@H]2O[C@H](C)C[C@H](N(C)C)[C@H]2O)[C@](C)(O)C[C@@H](C)/C(=N\OCOCCOC)[C@H](C)[C@@H](O)[C@]1(C)O [Roxithromycin, roxithromycin]    9.92
2) CC[C@H]1OC(=O)[C@H](C)[C@@H](O[C@H]2C[C@@](C)(OC)[C@@H](O)[C@H](C)O2)[C@H](C)[C@@H](O[C@@H]2O[C@H](C)C[C@H](N(C)C)[C@H]2O)[C@@]2(C)C[C@@H](C)[C@@]3(O[C@@]1(C)[C@H](O)[C@H]3C)O2 [Anhydroerythromycin A, anhydroerythromycin A]    5.61
3) CC[C@H]1OC(=O)[C@H](C)[C@@H](O[C@H]2C[C@@](C)(OC)[C@@H](O)[C@H](C)O2)[C@H](C)[C@@H](O[C@@H]2O[C@H](C)C[C@H](N(C)C)[C@H]2O)[C@](C)(O)C[C@@H](C)C(=O)[C@H](C)[C@@H](O)[C@H]1C [Erythromycin B, erythromycin B]    7.15

# query: G151R minimum inhibition | item CC[C@H]1OC(=O)[C@H](C)[C@@H](O[C@H]2C[C@@](C)(OC)[C@@H](O)[C@H](C)O2)[C@H](C)[C@@H](O[C@@H]2O[C@H](C)C[C@H](N(C)C)[C@H]2O)[C@](C)(O)C[C@@H](C)CN(C)[C@H](C)[C@@H](O)[C@]1(C)O [Azithromycin, azithromycin] | system: KCNJ5^G151R (Homo sapiens, UniProt P48544, G151R)
5.11

# query: G151R minimum inhibition | item CC[C@H]1OC(=O)[C@H](C)[C@@H](O[C@H]2C[C@@](C)(OC)[C@@H](O)[C@H](C)O2)[C@H](C)[C@@H](O[C@@H]2O[C@H](C)C[C@H](N(C)C)[C@H]2O)[C@](C)(O)C[C@@H](C)[C@@H]2N[C@@H](COCCOC)O[C@H]([C@H]2C)[C@]1(C)O [Dirithromycin, dirithromycin] | system: KCNJ5^G151R (Homo sapiens, UniProt P48544, G151R)
1.31

# query: G151R minimum inhibition | item CC[C@H]1OC(=O)[C@H](C)[C@@H](O[C@H]2C[C@@](C)(O)[C@@H](O)[C@H](C)O2)[C@H](C)[C@@H](O[C@@H]2O[C@H](C)C[C@H](N(C)C)[C@H]2O)[C@](C)(O)C[C@@H](C)C(=O)[C@H](C)[C@@H](O)[C@]1(C)O [Erythromycin C, erythromycin C] | system: KCNJ5^G151R (Homo sapiens, UniProt P48544, G151R)
6.72

----------
In this section we review reported % effect (1) values for a set of compounds.
- ASSAY_SYSTEM: KCNJ5^G151R (Homo sapiens, UniProt P48544, G151R)
- Construct: expressed in transfected cells
- TEST: cell-based
- Assay type: cell-based
- TEST_PARAMETERS: 10 μM; ATP level 72 h after induction; uninduced = 100%, induced = 0% effect; first of the two runs (primary screen / hit pick)
Only the number, expressed in %, is required.

1. CC(=O)N(C)c1c(I)cc(I)c(OC(C)C(=O)O)c1I (centres unmarked)    83.4
2. Cc1oc2ccc(O)c(CN3CCC(C)CC3)c2c1C(=O)Nc1ccccc1    62.7

Given the compound Cc1oc2ccc(O)c(CN3CCCC(C)C3)c2c1C(=O)Nc1ccccc1 (centres unmarked) , what is its reported % effect (1)?
55.1

Given the compound O=c1[nH]c2ccccc2s1 , what is its reported % effect (1)?
43.9

Given the compound Cc1oc2ccc(O)c(CN3CCCCC3)c2c1C(=O)Nc1cccc(C(F)(F)F)c1 , what is its reported % effect (1)?
54.7

----------
- ASSAY_SYSTEM: KCNJ5^G151R (Homo sapiens, UniProt P48544, G151R)
- Construct: expressed in transfected cells
- Sequence (P48544 1-419 G151R): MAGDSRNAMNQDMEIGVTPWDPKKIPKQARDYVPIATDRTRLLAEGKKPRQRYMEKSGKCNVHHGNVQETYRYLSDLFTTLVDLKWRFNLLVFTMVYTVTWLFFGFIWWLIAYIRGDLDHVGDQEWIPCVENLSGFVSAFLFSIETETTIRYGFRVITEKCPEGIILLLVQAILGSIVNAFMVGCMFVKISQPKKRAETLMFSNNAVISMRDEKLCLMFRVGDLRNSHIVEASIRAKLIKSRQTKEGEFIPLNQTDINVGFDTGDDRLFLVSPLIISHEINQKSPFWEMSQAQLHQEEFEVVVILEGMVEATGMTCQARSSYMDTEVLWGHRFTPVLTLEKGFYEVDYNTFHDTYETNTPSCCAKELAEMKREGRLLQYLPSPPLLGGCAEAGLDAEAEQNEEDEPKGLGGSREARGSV
- TEST: cell-based
- Type: cell-based
- TEST_PARAMETERS: HEK293; 10 μM; ATP level 72 h after induction; uninduced = 100%, induced = 0% effect; first of the two runs (primary screen / hit pick); read-out: % effect (1)
Counter-ions that a name gives are not always drawn.
Please respond with Fulfilled when measured viability at 10 µM is strictly beneath 40%, and with Not fulfilled in all other cases.

1) CC(COc1ccccc1)N(CCCl)Cc1ccccc1 (centres unmarked) [YU225090, Phenoxybenzamine-HCl]    Not fulfilled
2) CC[C@H]1OC(=O)[C@H](C)[C@@H](O[C@H]2C[C@@](C)(OC)[C@@H](O)[C@H](C)O2)[C@H](C)[C@@H](O[C@@H]2O[C@H](C)C[C@H](N(C)C)[C@H]2O)[C@](C)(O)C[C@@H](C)C(=O)[C@H](C)[C@@H](O)[C@]1(C)O    Not fulfilled
3) CC(C)COCC(CN(Cc1ccccc1)c1ccccc1)N1CCCC1 (centres unmarked) [YU224969, Bepridil HCl]    Fulfilled
4) CCCCc1oc2ccccc2c1C(=O)c1cc(I)c(OCCN(CC)CC)c(I)c1 [YU039827, Amiodarone hydrochloride]    Not fulfilled
5) CNC1CC(c2ccc(Cl)c(Cl)c2)c2ccccc21 (centres unmarked)    Not fulfilled

Turning now to a further record.
Does this compound meet the criterion viability at 10 µM < 40%? CN1CCN(CCCN2c3ccccc3Sc3ccc(C(F)(F)F)cc32)CC1 [YU225091, Trifluoperazine HCl]
Not fulfilled

----------
- ASSAY_SYSTEM: KCNJ5^G151R (Homo sapiens, UniProt P48544, G151R)
- Construct: expressed in transfected cells
- TEST: cell-based
- Type: cell-based
- TEST_PARAMETERS: HEK293; 10 μM; ATP level 72 h after induction; uninduced = 100%, induced = 0% effect; second of the two runs (primary screen / hit pick, confirmatory testing); read-out: % effect (2)
Structures can show the parent of a compound that is named as a salt.
Please respond with yes when measured viability at 10 µM is strictly beneath 50%, and with no in all other cases.

Answered examples (2):
1) CCCC(C(=O)OCCN(CC)CC)(c1ccccc1)c1ccccc1 [YU226705, Proadifen HCl]    yes
2) C[C@]12CC[C@@H]3c4ccc(O)cc4C[C@@H](CCCCCCCCC[S+]([O-])CCCC(F)(F)C(F)(F)F)[C@H]3[C@@H]1CC[C@@H]2O (stereo partly shown)    yes

Does this molecule meet the criterion viability at 10 µM < 50%? CC[C@H]1OC(=O)[C@H](C)[C@@H](O[C@H]2C[C@@](C)(OC)[C@@H](O)[C@H](C)O2)[C@H](C)[C@@H](O[C@@H]2O[C@H](C)C[C@H](N(C)C)[C@H]2O)[C@](C)(O)C[C@@H](C)/C(=N\OCOCCOC)[C@H](C)[C@@H](O)[C@]1(C)O
no

Does this molecule meet the criterion viability at 10 µM < 50%? CC(COc1ccccc1)N(CCCl)Cc1ccccc1 (stereo not shown) [YU225090, Phenoxybenzamine-HCl]
no

Does this molecule meet the criterion viability at 10 µM < 50%? CC[C@H]1OC(=O)[C@H](C)[C@@H](O[C@H]2C[C@@](C)(OC)[C@@H](O)[C@H](C)O2)[C@H](C)[C@@H](O[C@@H]2O[C@H](C)C[C@H](N(C)C)[C@H]2O)[C@](C)(O)C[C@@H](C)C(=O)[C@H](C)[C@@H](O)[C@]1(C)O
no

Does this molecule meet the criterion viability at 10 µM < 50%? CCCNCC(O)COc1ccccc1C(=O)CCc1ccccc1 (stereo not shown)
yes

Does this molecule meet the criterion viability at 10 µM < 50%? CCCCc1oc2ccccc2c1C(=O)c1cc(I)c(OCCN(CC)CC)c(I)c1 [YU039827, Amiodarone hydrochloride]
no

Does this molecule meet the criterion viability at 10 µM < 50%? CNC1CC(c2ccc(Cl)c(Cl)c2)c2ccccc21 (stereo not shown)
no

Does this molecule meet the criterion viability at 10 µM < 50%? CN(C)C(=O)C(CCN1CCC(O)(c2ccc(Cl)cc2)CC1)(c1ccccc1)c1ccccc1 [YU224113, Loperamide-HCl]
yes

Does this molecule meet the criterion viability at 10 µM < 50%? c1cncnc1
no

Does this molecule meet the criterion viability at 10 µM < 50%? CC(C)COCC(CN(Cc1ccccc1)c1ccccc1)N1CCCC1 (stereo not shown) [YU224969, Bepridil HCl]
yes

Does this molecule meet the criterion viability at 10 µM < 50%? CN1CCN(CCCN2c3ccccc3Sc3ccc(C(F)(F)F)cc32)CC1 [YU225091, Trifluoperazine HCl]
yes
